Target chain: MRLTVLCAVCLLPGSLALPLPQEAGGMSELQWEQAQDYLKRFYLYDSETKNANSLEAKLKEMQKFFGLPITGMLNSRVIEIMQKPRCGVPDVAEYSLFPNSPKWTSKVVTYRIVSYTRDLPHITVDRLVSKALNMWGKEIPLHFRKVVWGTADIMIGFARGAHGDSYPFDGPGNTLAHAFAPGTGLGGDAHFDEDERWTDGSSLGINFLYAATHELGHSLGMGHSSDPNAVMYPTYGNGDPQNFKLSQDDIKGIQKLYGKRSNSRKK
Observation type: Ki (nM)

P: O=C(CN(CCO)S(=O)(=O)c1ccc(F)cc1)NO
Q: COc1ccc(S(=O)(=O)N[C@@H](C(=O)NO)[C@@H](C)O)cc1
Min Ki? P | Q Reply briefly: the label of your chosen item.
Q
